Hello, the source for this data is PubChem BioAssay AID330, in case you need it.

tested on: P388 leukemia ip, CD2F1 mice, survival T/C; assay: NCI In Vivo Anticancer Drug Screen. Data for tumor model P388 Leukemia (intraperitoneal) in CD2F1 (CDF1) mice; settings: endpoint: median survival time; dose: 50.0 mg/kg/injection; schedule: Q01DX005 (ip); vehicle: Klucel (hydroxypropylcellulose) (HPC); higher = longer survival
Toxic doses and inconclusive results are not listed.
Measured T/C, listed per entry.

Some solved entries appear below for comparison.
> print(dat)
                                 compound  metric      assay.result
1                  O=C(O)CCCC(O)(O)C(=O)O     T/C  108 % of control
2  Cc1nc(N(C)C)[nH]c(=O)c1N=Nc1ccc(Cl)cc1     T/C  105 % of control
3        CC1(C)CC(N2CCN(CCO)CC2)=CC(=S)N1     T/C  103 % of control
4             Cc1nc2sc3c(c2c2nncn12)CCCC3     T/C  103 % of control
5                 Cn1cc(C#N)c(=O)[nH]c1=O     T/C  101 % of control

As a next step, examine the compound that follows.
Bench note: what T/C did COc1ccc(C(Cc2ccccc2)NCCNCCO)cc1 (stereo unspecified) show? 101 % of control

----------
tested on: P388 leukemia ip, CD2F1 mice, survival T/C; experiment: NCI In Vivo Anticancer Drug Screen. Data for tumor model P388 Leukemia (intraperitoneal) in CD2F1 (CDF1) mice; conditions: endpoint: median survival time; dose: 100.0 mg/kg/injection; schedule: Q01DX005 (ip); vehicle: saline with Tween-80; higher = longer survival
Inconclusive results and toxic doses are left out.
metric: T/C

> print(dat)
                                   molecule  metric      assay.result
1       CCCCCN(CCCCC)CCCCCCCCN1CCCc2ccccc21     T/C  108 % of control
2  CC12CC3(Nc4ccccc4C3(C)O)OC1(C)c1ccccc1N2 (centres undefined)     T/C   92 % of control
3  Cn1cccc1/C=N/N1CC(=O)N(c2ccc(Cl)cc2)CC1=O     T/C  106 % of control

Here is another molecule to look at.
Fill blank: measured T/C of the molecule COC(=O)/C=C1\C2OC(C1C(=O)OC)C(O)C2O (centres undefined) is ____. 97 % of control

----------
tested on: P388 leukemia ip, CD2F1 mice, survival T/C; experiment: NCI In Vivo Anticancer Drug Screen. Data for tumor model P388 Leukemia (intraperitoneal) in CD2F1 (CDF1) mice; settings: endpoint: median survival time; dose: 400.0 mg/kg/injection; schedule: Q01DX001 (ip); vehicle: saline with Tween-80; higher = longer survival
Inconclusive results and toxic doses are left out.
metric: T/C

Field: example entries. Status: answers known.
> print(dat)
                                   compound                                    system      assay.result
1  O=[N+]([O-])c1ccc(-c2cnc3nc4[nH]c5ccccc5c4nn23)cc1  P388 leukemia ip, CD2F1 mice, survival T/C   87 % of control
2  O=C1CSC(c2ccc(Cl)cc2)N1c1ccc(N2C(=O)CSC2c2ccc(Cl)cc2)cc1 (centres undefined)  P388 leukemia ip, CD2F1 mice, survival T/C   91 % of control
3  NC1=NC(c2ccccc2Cl)CC(c2cc3ccccc3o2)=N1 (centres undefined)  P388 leukemia ip, CD2F1 mice, survival T/C  100 % of control

With those in mind, consider the next compound.
// fetch P388 leukemia ip, CD2F1 mice, survival T/C T/C for `O=S1(=O)C=C(c2ccc3ccccc3c2)C1` 96 % of control
